- targetEntity: Glucose transporter (Leishmania mexicana) (UniProt O61059)
- testDescription: ST_JUDE_LEISH: Cytotoxicity at 2uM final concentration against transgenic Leishmania Mexicana promastigotes LmGT2 that are glucose transport deficient and complemented with the L. Mexicana glucose transporter 2. Activity is measured by DNA content using SYBR green in vitro
- Format: functional
testReadout: inhibition (%)
Numbers only; they are read as %.

Examples from the recorded data:
molecule: CCCCCCCCc1nc(C)c(Br)c(O)c1Br
outputUnit: %
inhibition: 0.8

molecule: O=C(/C=C/c1ccc(F)cc1)NC1CCC(CCN2CCc3ccc(-n4cccn4)cc3CC2)CC1 (stereo not given)
outputUnit: %
inhibition: 7.81

molecule: CNC(=O)c1cnc(Nc2ccc(N3CCOCC3)cc2)nc1Nc1cccc(OC)c1
outputUnit: %
inhibition: -2.23

molecule: Cc1cc(NCCC(=O)NCc2cccc(F)c2)nc(NCCc2ccc(F)cc2)n1
outputUnit: %
inhibition: 3.7

molecule: Cc1ccc(F)c(OCC2CCCN(c3ccc(C(=O)NC4CC4)cn3)C2)c1 (stereo not given)
outputUnit: %
inhibition: 2.18

molecule: Cc1cc(F)ccc1[C@H]1CNCCN1C(=O)N(C)C(C)(C)c1cc(C(F)(F)F)cc(C(F)(F)F)c1
outputUnit: %
inhibition: -1.4

molecule: CC(C)c1ccc2c(c1)c(SC(C)(C)C)c(CC(C)(C)C#N)n2Cc1ccc(Cl)cc1
outputUnit: %
inhibition: -0.23

molecule: Cc1cccc2nc(-c3ccc(-c4ccc(CNCc5cnn(-c6ccccc6)n5)cc4)cc3)[nH]c12
outputUnit: %
inhibition: 1.19

Noted for Cc1c(-c2ccc3c(c2)C(NCCCN2CCCCC2)CC3)cnc(N)c1C (stereo not given) : its inhibition reads 2.57

inhibition measured on `N/C(=N\c1cccc(Cc2ccccc2)n1)NCc1ccccc1` = 3.21

The molecule identified as `CCN(CC)CCCN(CCCN(CC)CC)c1cc(C)nc(Nc2ccc3cc(Br)ccc3c2)n1` registered its inhibition at 3.03

Looking up `O=[N+]([O-])c1cccc(Nc2cncc(-c3ccc(CO)cc3)c2)c1` , I found its inhibition recorded as 0.83

Summary for this molecule, `CC1CCN(CCNC(=O)c2ccc3c(=O)n(Cc4ccc(Cl)cc4)c(=S)[nH]c3c2)CC1` : inhibition is 1.91

The molecule identified as `Cc1ccc(F)c(CN2CCC(N3CC(c4ccccc4)(c4ccccc4)OC3=O)CC2)c1Cl` registered its inhibition at 9.68

inhibition reading for `Cc1cc(N[C@@H](CC(C)C)C(=O)NCCCOC(C)C)nc(NCCc2ccc(F)cc2)n1` : 0.62

Entry `Cc1ccc2c(N/N=C/c3ccccc3[N+](=O)[O-])cc(C)nc2c1` — recorded inhibition = 1.01

get_value(item= `CCCNCc1ccc(-c2ccc(CN(CCOC)C(=O)c3cscn3)cc2)nc1` , readout=inhibition) returns 2.19

Looking up `CC[C@H]1CN(Cc2cccc(O)c2)CC[C@H]1CCCc1ccnc2ccc(O)cc12` , I see its inhibition listed as 3.98

// inhibition lookup, molecule = `Cc1cc(-c2ccc(CNC3CCN(C)CC3)cc2)ccc1S(=O)(=O)NCc1ccccc1` , result: 1.14

For record `O=C(NCCCCN1CCC(c2ccc3c(c2OCc2ccncc2)CCCC3)CC1)c1ccc(NC(=O)c2ccc(Cl)cc2)cc1` the listed inhibition is 1.29
